Data origin, for the record: patent US8143426B2

Biological target: XIAP BIR3 (Homo sapiens, UniProt P98170)
Construct: 40 nM of an IAP-BIR3
Sequence (P98170 241-356 limits assumed): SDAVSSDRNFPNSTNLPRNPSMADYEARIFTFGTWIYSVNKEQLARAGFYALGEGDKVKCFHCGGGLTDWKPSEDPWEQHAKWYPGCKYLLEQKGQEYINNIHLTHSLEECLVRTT
Experiment: Fluorescence polarization binding of IAP antagonists to IAP-BIR3 (competition with AbuRPF-K(5-Fam)-NH2)
Settings: Table 2, dimeric IAP antagonists
pKd: −log10 of the molar value.
pKd values, listed per item

Here are 2 compounds together with their reported answers.
{"columns": ["Compound", "Tested on", "pKd"],
 "data": [
  ["CN[C@@H](C)C(=O)N[C@H](C(=O)N1CCC[C@H]1Cc1c(-c2c(C[C@@H]3CCCN3C(=O)[C@@H](NC(=O)[C@H](C)NC)C(C)C)c3cc(F)ccc3n2C2O[C@H](CO)[C@H](O)[C@H](O)[C@H]2O)[nH]c2ccc(F)cc12)C(C)C (some centres unmarked)", "XIAP BIR3 (Homo sapiens, UniProt P98170)", "> 7.00"],
  ["CNC(C)C(=O)NC(C(=O)N1CCCC1Cc1c(-c2c(CC3CCCN3C(=O)C(NC(=O)C(C)NC)C(C)OC)c3ccc(F)cc3n2C2OC(C)C(O)C(O)C2O)[nH]c2cc(F)ccc12)C(C)OC (centres unmarked)", "XIAP BIR3 (Homo sapiens, UniProt P98170)", "> 7.00"]
]}

[Q] Fill blank: measured pKd of the compound CNC(C)C(=O)NC(C(=O)N1CC(O)CC1Cc1c(-c2c(CC3CC(O)CN3C(=O)C(NC(=O)C(C)NC)C(C)OC)c3ccc(F)cc3n2C2OC(C)C(O)C(O)C2O)[nH]c2cc(F)ccc12)C(C)OC (centres unmarked) is ____.
[A] > 7.00

[Q] Also, CN[C@@H](C)C(=O)N[C@H](C(=O)N1CCC[C@H]1Cc1c(-c2c(C[C@@H]3CCCN3C(=O)[C@@H](NC(=O)[C@H](C)NC)C(C)C)c3cc(F)ccc3n2C2O[C@H](CO)[C@@H](O)[C@H](O)[C@H]2O)[nH]c2ccc(F)cc12)C(C)C (some centres unmarked) please.
[A] > 7.00

[Q] Also, CC(C)C(NC(=O)CN)C(=O)N1CCCC1Cc1c(-c2c(CC3CCCN3C(=O)C(NC(=O)CN)C(C)C)c3ccc(F)cc3n2C2OC(C)C(O)C(O)C2O)[nH]c2cc(F)ccc12 (centres unmarked) please.
[A] 6.00 to 7.00

====

Target: XIAP BIR3 (Homo sapiens, UniProt P98170)
Construct: 40 nM of an IAP-BIR3
Assay: Fluorescence polarization binding of IAP antagonists to IAP-BIR3 (competition with AbuRPF-K(5-Fam)-NH2)
Conditions: Table 3, monomeric IAP antagonists (piperidine-substituted)
Attribute measured: Kd

{"columns": ["Molecule", "Attribute measured", "Experimental result"],
 "data": [
  ["CN[C@@H](CO)C(=O)N[C@H](C(=O)N1C[C@@H](O)C[C@H]1Cc1c(-c2ccc(F)cc2)n(C2CCNCC2)c2cc(F)ccc12)C(C)(C)C [NN]", "Kd", "0.1 to 1 µM"],
  ["CC[C@H](NC)C(=O)N[C@H](C(=O)N1C[C@@H](O)C[C@H]1Cc1c(-c2ccc(F)cc2)n(C2CCNCC2)c2cc(F)ccc12)[C@@H](C)OC [RR]", "Kd", "< 0.1 µM"]
]}

Kindly review the next molecule as well.
[Q] Fill blank: measured Kd of the molecule CCN[C@@H](C)C(=O)N[C@H](C(=O)N1C[C@@H](O)C[C@H]1Cc1c(-c2ccc(F)cc2)n(C2CCNCC2)c2cc(F)ccc12)C(C)(C)C [MM] is ____.
[A] 0.1 to 1 µM
